# ASSAY_TARGET: Peroxisome proliferator-activated receptor gamma (Homo sapiens, UniProt P37231)
# Sequence (P37231 whole entry): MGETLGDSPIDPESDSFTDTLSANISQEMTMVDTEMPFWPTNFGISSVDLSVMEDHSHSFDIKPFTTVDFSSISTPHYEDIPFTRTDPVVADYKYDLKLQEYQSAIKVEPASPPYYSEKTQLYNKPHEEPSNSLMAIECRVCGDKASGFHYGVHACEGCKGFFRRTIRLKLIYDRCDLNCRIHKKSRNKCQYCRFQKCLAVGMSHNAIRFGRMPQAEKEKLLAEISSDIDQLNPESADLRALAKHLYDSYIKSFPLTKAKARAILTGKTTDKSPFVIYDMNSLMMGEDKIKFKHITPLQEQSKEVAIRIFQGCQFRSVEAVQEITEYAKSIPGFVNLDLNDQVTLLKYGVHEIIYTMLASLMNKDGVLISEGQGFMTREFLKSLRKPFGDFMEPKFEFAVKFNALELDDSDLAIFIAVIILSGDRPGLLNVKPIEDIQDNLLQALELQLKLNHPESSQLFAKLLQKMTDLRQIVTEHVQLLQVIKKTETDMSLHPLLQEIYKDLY
# PROTOCOL_SUMMARY: Agonist activity at GAL4 tagged human PPARgamma ligand binding domain expressed in HEK293 cells by luciferase reporter gene assay
MEASURED_PARAMETER: log10 of EC50 (log10 of the value in µM)
Plainly stated, the numbers are log10 of EC50 given in µM.

# example entries with known answers
{"MOLECULE": "Cc1oc(-c2ccccc2)nc1CCOc1cccc([C@H]2CN(C(=O)Oc3ccccc3)C[C@@H]2CC(=O)O)c1 (racemic)", "MEASURED_PARAMETER": "log10 of EC50", "QUANTITATIVE_RESULT": 1.16}
{"MOLECULE": "Cc1oc(-c2ccccc2)nc1CCOc1ccc(C[C@@H]2CN(C(=O)Oc3ccccc3)C[C@@H]2C(=O)O)cc1", "MEASURED_PARAMETER": "log10 of EC50", "QUANTITATIVE_RESULT": -1.52}

Exercise: Data request, read-out log10 of EC50, for CCOC(=O)N1C[C@H](CC(=O)O)[C@H](c2cccc(OCCc3nc(-c4ccccc4)oc3C)c2)C1 (racemic)
Solution: -1.70
